The measurements presented in this section are drawn from ChEMBL document CHEMBL4219160.

# experimentalTarget: Human immunodeficiency virus type 1 reverse transcriptase (Human immunodeficiency virus 1, UniProt Q72547)
pIC50: −log10 of the molar value.

molecule: Cc1cc(/C=C/C#N)cc(C)c1Oc1cc(NCCCN2CCOCC2)nc(Nc2ccc(C#N)cc2)c1
pIC50: 6.01
--
molecule: C=CCNc1cc(Oc2c(C)cc(/C=C/C#N)cc2C)nc(Nc2ccc(C#N)cc2)n1
pIC50: 7.52
--
molecule: COC(CNc1cc(Oc2c(C)cc(/C=C/C#N)cc2C)nc(Nc2ccc(C#N)cc2)n1)OC
pIC50: 6.77
--
molecule: C=CCNc1cc(Oc2c(C)cc(/C=C/C#N)cc2C)cc(Nc2ccc(C#N)cc2)n1
pIC50: 6.57
--
molecule: Cc1cc(/C=C/C#N)cc(C)c1Oc1cc(NC2CC2)nc(Nc2ccc(C#N)cc2)n1
pIC50: 7.30
--
molecule: Cc1cc(/C=C/C#N)cc(C)c1Oc1cc(NCC2CCCO2)nc(Nc2ccc(C#N)cc2)c1 (stereo not given)
pIC50: 6.20
--
molecule: Cc1cc(/C=C/C#N)cc(C)c1Oc1cc(Cl)nc(Nc2ccc(C#N)cc2)n1
pIC50: 7.70
--
molecule: Cc1cc(/C=C/C#N)cc(C)c1Oc1cc(NCC2CCCO2)nc(Nc2ccc(C#N)cc2)n1 (stereo not given)
pIC50: 6.36
--
molecule: Cc1cc(/C=C/C#N)cc(C)c1Oc1cc(NCCN(C)C)nc(Nc2ccc(C#N)cc2)c1
pIC50: 6.08
--
molecule: Cc1cc(/C=C/C#N)cc(C)c1Oc1cc(NCCN2CCN(C)CC2)nc(Nc2ccc(C#N)cc2)c1
pIC50: 5.66

---

# protocol: in vitro
# assayContext: human, MT4 cells
# Description: Selectivity index, ratio of CC50 for human MT4 cells to EC50 for wild type HIV1 3B infected in human MT4 cells
Catalogue of selectivity ratio readings, one per entry.
resultType: selectivity ratio

molecule: Cc1cc(/C=C/C#N)cc(C)c1Oc1cc(NCCCN2CCOCC2)nc(Nc2ccc(C#N)cc2)c1
signQualifier: ≥
resultNumber: 992
//
molecule: Cc1cc(/C=C/C#N)cc(C)c1Oc1cc(NCCN2CCNCC2)nc(Nc2ccc(C#N)cc2)n1
signQualifier: =
resultNumber: 148
//
molecule: Cc1cc(/C=C/C#N)cc(C)c1Oc1cc(NC2CC2)nc(Nc2ccc(C#N)cc2)n1
signQualifier: =
resultNumber: 1120
//
molecule: C=CCNc1cc(Oc2c(C)cc(/C=C/C#N)cc2C)cc(Nc2ccc(C#N)cc2)n1
signQualifier: =
resultNumber: 8220
//
molecule: Cc1cc(/C=C/C#N)cc(C)c1Oc1cc(NCCN2CCN(C)CC2)nc(Nc2ccc(C#N)cc2)c1
signQualifier: =
resultNumber: 321
//
molecule: Cc1cc(/C=C/C#N)cc(C)c1Oc1cc(NCCN(C)C)nc(Nc2ccc(C#N)cc2)n1
signQualifier: =
resultNumber: 2050
//
molecule: COCCNc1cc(Oc2c(C)cc(/C=C/C#N)cc2C)cc(Nc2ccc(C#N)cc2)n1
signQualifier: =
resultNumber: 9330
//
molecule: Cc1cc(/C=C/C#N)cc(C)c1Oc1cc(NCC2CCCO2)nc(Nc2ccc(C#N)cc2)c1 (centres undefined)
signQualifier: =
resultNumber: 2560
//
molecule: Cc1cc(/C=C/C#N)cc(C)c1Oc1cc(NCCN2CCOCC2)nc(Nc2ccc(C#N)cc2)n1
signQualifier: =
resultNumber: 2310
//
molecule: Cc1cc(/C=C/C#N)cc(C)c1Oc1cc(NCCN2CCOCC2)nc(Nc2ccc(C#N)cc2)c1
signQualifier: =
resultNumber: 25600
//
molecule: Cc1cc(/C=C/C#N)cc(C)c1Oc1cc(Nc2ccc(C#N)cc2)nc(NC2CC2)c1
signQualifier: =
resultNumber: 7400
//
molecule: C=CCNc1cc(Oc2c(C)cc(/C=C/C#N)cc2C)nc(Nc2ccc(C#N)cc2)n1
signQualifier: =
resultNumber: 2000
//
molecule: COCCNc1cc(Oc2c(C)cc(/C=C/C#N)cc2C)nc(Nc2ccc(C#N)cc2)n1
signQualifier: =
resultNumber: 2040
//
molecule: Cc1cc(/C=C/C#N)cc(C)c1Oc1cc(Cl)nc(Nc2ccc(C#N)cc2)n1
signQualifier: =
resultNumber: 2560
//
molecule: Cc1cc(/C=C/C#N)cc(C)c1Oc1cc(Cl)nc(Nc2ccc(C#N)cc2)c1
signQualifier: >
resultNumber: 39900
//
molecule: Cc1cc(/C=C/C#N)cc(C)c1Oc1cc(NCCN(C)C)nc(Nc2ccc(C#N)cc2)c1
signQualifier: =
resultNumber: 2240
//
molecule: Cc1cn([C@H]2C[C@H](N=[N+]=[N-])[C@@H](CO)O2)c(=O)[nH]c1=O
signQualifier: >
resultNumber: 658
//
molecule: Cc1cc(/C=C/C#N)cc(C)c1Oc1cc(NCCC#N)nc(Nc2ccc(C#N)cc2)n1
signQualifier: =
resultNumber: 736
//
molecule: Cc1cc(/C=C/C#N)cc(C)c1Oc1cc(NCC2CCCO2)nc(Nc2ccc(C#N)cc2)n1 (centres undefined)
signQualifier: >
resultNumber: 9240
